# Tested on: P388 leukemia ip, CD2F1 mice, survival T/C
# method-notes: NCI In Vivo Anticancer Drug Screen. Data for tumor model P388 Leukemia (intraperitoneal) in CD2F1 (CDF1) mice
# test-conditions: endpoint: median survival time; dose: 400.0 mg/kg/injection; schedule: Q01DX009 (ip); vehicle: other; higher = longer survival
Toxic doses and inconclusive results are not listed.
parameter: T/C

Dear colleague, I am looking for the recorded T/C of the following compound: COc1ccc(-c2c(C(N)=O)cnc(C)c2C)c(OCc2ccccc2)c1OC
107 % of control

Dear colleague, I am looking for the recorded T/C of the following compound: CCOC(=O)C1C/C(=N\O)c2ccc(OC)c(OC)c2C1 (stereo not given)
100 % of control

Dear colleague, I am looking for the recorded T/C of the following compound: COC1OC2COC(c3ccccc3)OC2C2OC(c3ccccc3)OC12 (stereo not given)
92 % of control

Dear colleague, I am looking for the recorded T/C of the following compound: COc1ccc(CCN(C=O)c2ccc(OC)c(OC)c2)cc1OC
96 % of control

Dear colleague, I am looking for the recorded T/C of the following compound: Cc1cc(Cl)c2ccccc2c1N
90 % of control

----------
# Tested on: P388 leukemia ip, CD2F1 mice, survival T/C
# method-notes: NCI In Vivo Anticancer Drug Screen. Data for tumor model P388 Leukemia (intraperitoneal) in CD2F1 (CDF1) mice
# test-conditions: endpoint: median survival time; dose: 200.0 mg/kg/injection; schedule: Q01DX001 (ip); vehicle: saline with Tween-80; higher = longer survival
Inconclusive results and toxic doses are left out.
parameter: T/C

Missing value: T/C, P388 leukemia ip, CD2F1 mice, survival T/C, entry CC(C)(C)S(=O)(=O)C(C)(C)C . Fill in?
100 % of control

Missing value: T/C, P388 leukemia ip, CD2F1 mice, survival T/C, entry CC(=O)n1c(Cl)c(/C=N/NC(N)=S)c2ccccc21 . Fill in?
94 % of control

Missing value: T/C, P388 leukemia ip, CD2F1 mice, survival T/C, entry CC(=O)Nc1cc2ccccc2c(Br)n1 . Fill in?
97 % of control

Missing value: T/C, P388 leukemia ip, CD2F1 mice, survival T/C, entry CCCn1c(Cl)c(/C=N\Nc2ccc([N+](=O)[O-])cc2)c2ccccc21 . Fill in?
95 % of control

Missing value: T/C, P388 leukemia ip, CD2F1 mice, survival T/C, entry Cc1cc2ccccc2c(N=Cc2cc(Br)cc(Br)c2O)c1C#N . Fill in?
98 % of control

Missing value: T/C, P388 leukemia ip, CD2F1 mice, survival T/C, entry NC(=O)c1[nH]ncc1C1OCCC1O (stereo unspecified) . Fill in?
100 % of control

----------
Provide the recorded T/C for the entries that follow.
# Test system: P388 leukemia ip, CD2F1 mice, survival T/C
# method-notes: NCI In Vivo Anticancer Drug Screen. Data for tumor model P388 Leukemia (intraperitoneal) in CD2F1 (CDF1) mice
# test-conditions: endpoint: median survival time; dose: 400.0 mg/kg/injection; schedule: Q01DX009 (ip); vehicle: saline with Tween-80; higher = longer survival
Inconclusive results and toxic doses are left out.

Dear colleague, I am looking for the recorded T/C of the following compound: O=C1c2ccccc2CC1(Br)C(Br)c1ccccc1 (configuration not stated)
109 % of control

Dear colleague, I am looking for the recorded T/C of the following compound: O=[N+]([O-])c1cccc(/C=C/C=C/c2cccc(S(=O)(=O)F)c2)c1
86 % of control

Dear colleague, I am looking for the recorded T/C of the following compound: Cc1cc(C)c2nccc(/C=C/c3ccc(N(C)C)cc3)c2c1
91 % of control

Dear colleague, I am looking for the recorded T/C of the following compound: NC(=O)Nc1ccccc1O
107 % of control

Dear colleague, I am looking for the recorded T/C of the following compound: Nc1cc(N)cc(C(=O)c2ccccc2)c1
90 % of control

Dear colleague, I am looking for the recorded T/C of the following compound: Cc1ccc(C(=O)C2CC(Br)C(Br)CC2C(=O)c2ccc(C)cc2)cc1 (configuration not stated)
87 % of control

Dear colleague, I am looking for the recorded T/C of the following compound: Cc1ccc(Cl)c(S(=O)(=O)F)c1
100 % of control

Dear colleague, I am looking for the recorded T/C of the following compound: CC(=O)Nc1cc(C)ccc1O
95 % of control

Dear colleague, I am looking for the recorded T/C of the following compound: Cc1ccc(N)c(N)c1
123 % of control

Dear colleague, I am looking for the recorded T/C of the following compound: CNC(=O)c1ccccc1O
90 % of control

Dear colleague, I am looking for the recorded T/C of the following compound: Cc1sc2ccccc2[n+]1CCC(=O)O
98 % of control

Dear colleague, I am looking for the recorded T/C of the following compound: Cc1ccc(S(=O)(=O)O/N=C2/CCC(C)(C)c3ccccc32)cc1
90 % of control
